ASSAY PROTOCOL: NCI Yeast Anticancer Drug Screen. Data for the mlh1 rad18 strain (AID 175)
PROTOCOL CONDITIONS: S. cerevisiae mlh1 rad18 strain growth inhibition; at 50.0 µM
Compounds without any hit were thinned out: in the full panel of roughly 79,000, 15% have a hit. Active and inactive are the calls of the source. Cut-off read from the data, not from the text of the source: active = growth inhibition above about 70%; inactive = the rest.
Your reply should match one of these outcome classes. 1 = active, -1 = inactive

Worked cases, answers included:
CC(=O)c1ccccc1C(C)c1ccc(C)c2ccccc12 (stereo unspecified) ... -1
CC(C)O[Si](OC(C)C)(OC(C)C)OC(C)C ... -1
Nc1nnc2nc(C(C(=O)/C=C\c3cccc(O)c3)c3nc4nnc(N)n4[nH]c3=O)c(=O)[nH]n12 ... -1
COc1ccc2nc3cc(Cl)ccc3c(NCCCC3CCCN4CCCCC34)c2c1 (stereo unspecified) ... -1

# next molecule below
Lookup: Check the results log: what was the call for Cc1ccc(NC(=O)C2C(=O)N(c3ccc(C)cc3)C(=O)/C2=N\NC(N)=S)cc1 (stereo unspecified) ?
Found: -1

---

ASSAY PROTOCOL: NCI Yeast Anticancer Drug Screen. Data for the sgs1 mgt1 strain (AID 161);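 note: 0% = growth of cultures given vehicle only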
PROTOCOL CONDITIONS: S. cerevisiae sgs1 mgt1 strain, at 50.0 µM, hits give high values
The panel holds about 79,000 compounds, 15% with a hit somewhere; the sample as a whole holds those more often.
Measured growth inhibition, listed per entry for reference.
Expressed in %, but write only the number.

Worked cases, answers included:
O=C1CCCCC1CN1CCCC1 (configuration not stated) ... -33.6
CCOC(=O)C1(Br)C(c2ccccc2)NC(=O)NC1(C)Br (configuration not stated) ... 0.6
CCc1ccc(OC(C)=O)cc1 ... -13.2

Lookup: Field request: growth inhibition | item: Cc1c2cc3c(c1O)C(=O)CC(O3)c1ccc(O)c(c1)-c1cccc(c1O)C(=O)OCC1OC(O2)C(O)C(O)C1O (configuration not stated)
Found: 32

---

The following compounds are shown together with reported growth inhibition values.
ASSAY PROTOCOL: NCI Yeast Anticancer Drug Screen. Data for the cln2 rad14 strain (AID 165);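 note: 0% = growth equal to vehicle treated cultures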
PROTOCOL CONDITIONS: S. cerevisiae cln2 rad14 strain, at 50.0 µM, hits give high values
Compounds without any hit were thinned out: in the full panel of roughly 79,000, 15% have a hit.
Please state the figure in %; there is no need to write the unit.

// worked examples, growth inhibition included
Cc1cc(Cl)c(C)c(C)c1O ... 16.6
c1ccc(Nc2nnc(Nc3ccccc3)s2)cc1 ... -21.2
C/C=C(/c1ccccc1)c1ccc(N(C)C)cc1 ... -4.7
CC1=C(C(=O)Nc2ccccc2C)C(c2ccccc2)C(C(=O)Nc2ccccc2C)=C(C)N1 ... 6.3
O=C1CN(CCCN2CCOCC2)CC(=O)N2Cc3ccccc3CN12 ... -0.45

Consider now this further compound.
Lookup: Reported growth inhibition, compound "Cc1c(O)c2ccccc2n(C)c1=O" : ____
Found: -6.1

---

ASSAY PROTOCOL: NCI Yeast Anticancer Drug Screen. Data for the rad50 strain (AID 155);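 note: 0% = growth of vehicle-only cultures of the same strain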
PROTOCOL CONDITIONS: S. cerevisiae rad50 strain growth inhibition; at 50.0 µM
The panel holds about 79,000 compounds, 15% with a hit somewhere; the sample as a whole holds those more often. The source made the active and inactive calls. Cut-off read from the data, not from the text of the source: active = growth inhibition above about 70%; inactive = the rest.
Answer with one of the outcomes label 1 for active, label 0 for inactive

COc1cc(OC)c(N=Nc2c(C)nc(N)nc2-c2ccccc2)cc1Cl ... label 0
Cc1ccc(N=Cc2cc(Cl)cc(Cl)c2OC(=O)c2ccccc2)cc1C ... label 1
[Cl][Pd][Cl].[NH-]c1ccc(/C=C2\C=Cc3ccccc32)cc1.[NH-]c1ccc(/C=C2\C=Cc3ccccc32)cc1 ... label 1
COc1cccc(/C=C\c2ccc(O)cc2)c1 ... label 1
COC(=O)c1cc(OC)nc(Cl)n1 ... label 0
Cc1cc2[nH]c3c(C#N)c(O)c(C(C)C)c(=O)n3c2cc1C ... label 0
O=C(c1ccccc1)c1cccs1 ... label 0
O=C1NC(=S)S/C1=C\c1c(Cl)cccc1Cl ... label 0
CC(=O)Oc1ccccc1OC(=S)N(C)C ... label 0
CCOC(=O)c1cnc(SC)nc1N ... label 0

Lookup: Outcome? "O=C1Nc2ccccc2C1=Nc1cccc2ncccc12"
Found: label 0

Lookup: // repeat for "CCCCN(CCCC)CC1OCCO1" and report
Found: label 0

Lookup: Another: "COC(=O)NS(=O)(=O)CC(=O)c1ccccc1"
Found: label 0

Lookup: Next: COC(=O)c1ccccc1NC(=O)C1CCCCC1=O (stereo unspecified)
Found: label 0

Lookup: Next molecule: CC1(C)CC2C(C1=O)C1(C)CCCC2(C)C1=O (stereo unspecified)
Found: label 0

Lookup: Repeat with "NC(=S)N/N=C(\CCC(=O)Nc1ccccc1[N+](=O)[O-])CC(=O)c1ccco1"
Found: label 0

Lookup: Can you handle "COc1c2occc2c(OC)c2c(=O)c(S(=O)(=O)NC(=O)Nc3ccc(Cl)cc3)coc12" next?
Found: label 0

Lookup: One more molecule: "CN(C)C=NC1CC(C)(C)NC(C)(C)C1"
Found: label 0

Lookup: Then what about the molecule "COC(=O)CC/C=N/NC(N)=O" ?
Found: label 0

Lookup: Cool, now "Nc1nc2c(N)cc(C(F)(F)F)cc2nc1-c1ccccc1"
Found: label 0

Lookup: Now the same for CCOC(=O)C1CSCN1C(C)=O (stereo unspecified)
Found: label 0

Lookup: // same read-out, input: CC(=O)O[C@H]1CSC[C@@H](OC(C)=O)C1[N+](=O)[O-] (stereo partly specified)
Found: label 0

Lookup: Now try "O=C(O)c1c[nH]c2cc(O)ccc2c1=O" .
Found: label 0

Lookup: Now give it for "CC1(C)C(=O)C(C)(C)C(=O)C(C)(C)C1=O" too.
Found: label 0

Lookup: Entry "COc1cc([N+](=O)[O-])cc(C(C)=O)c1O" please
Found: label 0

Lookup: And "COc1ccc2nc3cc(Cl)ccc3c(NN3CCN(CCO)CC3)c2c1" ?
Found: label 0
